I'd appreciate it if you could supply % IL8 at 100 nM antibody values for the items below.
- target-system: human Tissue Factor (TF) (human, UniProt P13726 33-295)
- test: cell-based or functional assay
# output: bare number, implied unit %

get_value(item= 43D (antibody, human IgG1, V domains shown) VH: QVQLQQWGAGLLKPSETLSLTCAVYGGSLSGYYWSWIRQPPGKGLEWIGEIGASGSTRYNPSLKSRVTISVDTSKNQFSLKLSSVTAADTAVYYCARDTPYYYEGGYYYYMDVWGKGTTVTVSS VL: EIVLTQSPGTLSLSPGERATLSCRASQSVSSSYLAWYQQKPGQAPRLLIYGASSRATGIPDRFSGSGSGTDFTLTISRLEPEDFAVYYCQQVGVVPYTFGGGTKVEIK , readout=% IL8 at 100 nM antibody) returns 5

get_value(item= 25A3 (antibody, human IgG1, V domains shown) VH: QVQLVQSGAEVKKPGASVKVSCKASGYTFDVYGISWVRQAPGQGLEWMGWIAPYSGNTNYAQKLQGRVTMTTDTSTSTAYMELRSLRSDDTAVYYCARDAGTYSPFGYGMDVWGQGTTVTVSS VL: DIQMTQSPSTLSASVGDRVTITCQASQSINNWLAWYQQKPGKAPKLLIYKAYNLESGVPSRFSGSGSGTEFTLTISSLQPDDFATYYCQLFQSLPPFTFGGGTKVEIK , readout=% IL8 at 100 nM antibody) returns 8

get_value(item= 25G (antibody, human IgG1, V domains shown, Human IgG1; also called antibody designated 25G) VH: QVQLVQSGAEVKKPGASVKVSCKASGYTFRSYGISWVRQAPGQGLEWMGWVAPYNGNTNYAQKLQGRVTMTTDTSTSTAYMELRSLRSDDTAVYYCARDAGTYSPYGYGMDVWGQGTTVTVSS VL: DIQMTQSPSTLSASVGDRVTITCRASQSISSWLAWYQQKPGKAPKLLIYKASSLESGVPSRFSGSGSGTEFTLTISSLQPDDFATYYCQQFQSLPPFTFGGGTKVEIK , readout=% IL8 at 100 nM antibody) returns 9

get_value(item= 25G1 (antibody, human IgG1, V domains shown) VH: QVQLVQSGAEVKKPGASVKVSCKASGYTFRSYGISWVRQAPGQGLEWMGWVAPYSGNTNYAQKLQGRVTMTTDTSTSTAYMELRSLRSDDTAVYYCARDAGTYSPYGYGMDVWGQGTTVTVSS VL: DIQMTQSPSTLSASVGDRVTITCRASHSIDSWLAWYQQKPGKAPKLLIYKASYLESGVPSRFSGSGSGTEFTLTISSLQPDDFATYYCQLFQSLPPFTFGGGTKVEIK , readout=% IL8 at 100 nM antibody) returns 9

get_value(item= 39A (antibody, human IgG1, V domains shown, Human IgG1; also called antibody designated 39A) VH: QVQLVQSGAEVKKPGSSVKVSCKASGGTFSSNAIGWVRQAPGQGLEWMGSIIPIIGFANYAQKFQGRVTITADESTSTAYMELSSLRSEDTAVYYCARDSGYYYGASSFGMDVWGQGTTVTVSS VL: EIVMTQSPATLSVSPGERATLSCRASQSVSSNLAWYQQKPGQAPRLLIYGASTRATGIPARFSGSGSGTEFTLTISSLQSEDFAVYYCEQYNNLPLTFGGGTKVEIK , readout=% IL8 at 100 nM antibody) returns 3

get_value(item= 43B (antibody, human IgG1, V domains shown) VH: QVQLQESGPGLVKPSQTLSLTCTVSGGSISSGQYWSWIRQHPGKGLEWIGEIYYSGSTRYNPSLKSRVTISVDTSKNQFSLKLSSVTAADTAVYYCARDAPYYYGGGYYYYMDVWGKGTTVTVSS VL: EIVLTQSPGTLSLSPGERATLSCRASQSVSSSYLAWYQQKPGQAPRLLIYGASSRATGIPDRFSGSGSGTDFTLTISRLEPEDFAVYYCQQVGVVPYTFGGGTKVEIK , readout=% IL8 at 100 nM antibody) returns 4

get_value(item= 25A (antibody, human IgG1, V domains shown, Human IgG1; also called antibody designated 25A; Antibody Clone 25A) VH: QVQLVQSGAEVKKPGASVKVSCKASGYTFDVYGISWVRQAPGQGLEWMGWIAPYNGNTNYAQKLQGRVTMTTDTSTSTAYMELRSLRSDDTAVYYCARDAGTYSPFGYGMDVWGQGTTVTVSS VL: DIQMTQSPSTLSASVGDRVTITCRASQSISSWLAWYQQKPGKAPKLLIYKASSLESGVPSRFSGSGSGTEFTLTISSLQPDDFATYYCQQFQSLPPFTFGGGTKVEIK , readout=% IL8 at 100 nM antibody) returns 9

get_value(item= 43B7 (antibody, human IgG1, V domains shown) VH: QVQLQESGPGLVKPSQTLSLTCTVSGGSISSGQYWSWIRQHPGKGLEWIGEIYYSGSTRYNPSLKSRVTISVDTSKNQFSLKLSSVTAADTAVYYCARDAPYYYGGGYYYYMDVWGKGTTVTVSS VL: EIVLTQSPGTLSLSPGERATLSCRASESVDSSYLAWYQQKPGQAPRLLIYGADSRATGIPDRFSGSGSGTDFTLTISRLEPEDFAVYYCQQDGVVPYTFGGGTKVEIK , readout=% IL8 at 100 nM antibody) returns 4
